I'd appreciate it if you could supply pIC50 values for the items below.
Target: Fatty-acid amide hydrolase 1 (Rattus norvegicus, UniProt P97612)
Sequence (P97612 whole entry): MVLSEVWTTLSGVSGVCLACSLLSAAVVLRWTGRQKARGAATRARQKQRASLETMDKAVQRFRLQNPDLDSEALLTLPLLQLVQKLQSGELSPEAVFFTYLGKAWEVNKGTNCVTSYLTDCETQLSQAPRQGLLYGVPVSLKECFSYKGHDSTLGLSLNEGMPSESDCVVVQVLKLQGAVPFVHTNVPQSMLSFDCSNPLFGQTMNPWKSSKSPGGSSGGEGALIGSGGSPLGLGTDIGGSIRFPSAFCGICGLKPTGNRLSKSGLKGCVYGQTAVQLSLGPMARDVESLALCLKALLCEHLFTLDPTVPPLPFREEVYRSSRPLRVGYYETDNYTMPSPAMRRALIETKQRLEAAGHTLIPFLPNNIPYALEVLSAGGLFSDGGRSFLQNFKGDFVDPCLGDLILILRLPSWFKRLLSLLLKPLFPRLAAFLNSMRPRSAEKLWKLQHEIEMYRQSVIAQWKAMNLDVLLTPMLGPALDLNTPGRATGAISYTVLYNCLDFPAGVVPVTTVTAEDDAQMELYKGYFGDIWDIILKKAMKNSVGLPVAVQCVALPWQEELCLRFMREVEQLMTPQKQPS
Test: Inhibition of FAAH in rat brain membranes assessed as hydrolysis of [14C]-anandamide after 30 mins
Format: cell membranes
Scale explanation: pIC50 corresponds to minus log10 of a concentration expressed in moles per litre.

// query Query: pIC50; subject: CN(CCCOc1ccc2c(=O)c3cccnc3oc2c1)Cc1cccc(OC(=O)NCCCCCCCN2CCOCC2)c1
// result 5.37

// query Record request: pIC50 value, item CCCNC(=O)Oc1cccc(CN(C)CCCOc2ccc3c(=O)c4ccccc4oc3c2)c1
// result 5.03

// query Would you mind telling me what pIC50 value was observed for CCCCNC(=O)Oc1cccc(CN(C)CCCOc2ccc3c(=O)cc(-c4ccccc4)oc3c2)c1 ?
// result 5.26

// query For the compound CCCCCCNC(=O)Oc1cccc(CN(C)CCCOc2ccc3c(=O)c4ccccc4oc3c2)c1 , what pIC50 is on record?
// result 5.37

// query Given the compound CCCCNC(=O)Oc1cccc(CN(C)CCCOc2ccc3ccc(=O)oc3c2)c1 , what is its reported pIC50?
// result 5.06
